- Test system: 3T3-L1 pre adipocytes
- ASSAY METHOD TEXT: Cell toxicity of compounds at various doses
- Type: cell-based
- CONDITION NOTES: 10 μM, Day 4, 3T3-L1 pre adipocytes
MEASUREMENT NAME: Cell toxicity

{"columns": ["MOLECULE", "TARGET OF ASSAY", "MEASUREMENT NAME", "RESULT"],
 "data": [
  ["N#CC(Nc1ccc([B-](F)(F)F)cc1)c1ccco1 (centres unmarked) [Compound 5]", "3T3-L1 pre adipocytes", "Cell toxicity", "≧10%"],
  ["N#CC(Nc1ccc([B-](F)(F)F)cc1)c1cc(-c2ccc(F)cc2)on1 (centres unmarked) [Compound 4]", "3T3-L1 pre adipocytes", "Cell toxicity", "≧10%"],
  ["CC1(C)OB(c2ccc(NC(C#N)c3cc(-c4ccc(F)cc4)on3)cc2)OC1(C)C (centres unmarked) [Compound 1]", "3T3-L1 pre adipocytes", "Cell toxicity", "5-10%"],
  ["CC1(C)OB(c2ccc(NC(C#N)c3cc(-c4ccccc4)on3)cc2)OC1(C)C (centres unmarked) [Compound 2]", "3T3-L1 pre adipocytes", "Cell toxicity", "30-40%"],
  ["Cc1cc(C(C#N)Nc2ccc(B3OC(C)(C)C(C)(C)O3)cc2)no1 (centres unmarked) [Compound 3]", "3T3-L1 pre adipocytes", "Cell toxicity", "≧10%"]
]}

---

- Test system: 3T3-L1 pre adipocytes
- ASSAY METHOD TEXT: Cell toxicity of compounds at various doses
- Format: cell-based
- CONDITION NOTES: 10 μM, Day 5, 3T3-L1 pre adipocytes

{"columns": ["COMPOUND", "Cell toxicity"],
 "data": [
  ["CC1(C)OB(c2ccc(NC(C#N)c3cc(-c4ccc(F)cc4)on3)cc2)OC1(C)C (centres unmarked)", "5-10%"],
  ["N#CC(Nc1ccc([B-](F)(F)F)cc1)c1ccco1 (centres unmarked)", "≧10%"],
  ["Cc1cc(C(C#N)Nc2ccc(B3OC(C)(C)C(C)(C)O3)cc2)no1 (centres unmarked)", "≧10%"],
  ["N#CC(Nc1ccc([B-](F)(F)F)cc1)c1cc(-c2ccc(F)cc2)on1 (centres unmarked)", "≧10%"],
  ["CC1(C)OB(c2ccc(NC(C#N)c3cc(-c4ccccc4)on3)cc2)OC1(C)C (centres unmarked)", "≧40%"]
]}

---

- Test system: 3T3-L1 pre adipocytes
- ASSAY METHOD TEXT: Cell toxicity of compounds at various doses
- Assay type: cell-based
- CONDITION NOTES: 5 μM, Day 5, 3T3-L1 pre adipocytes

{"columns": ["MOLECULE", "Cell toxicity"],
 "data": [
  ["N#CC(Nc1ccc([B-](F)(F)F)cc1)c1cc(-c2ccc(F)cc2)on1 (centres unmarked) [Compound 4]", "0-5%"],
  ["CC1(C)OB(c2ccc(NC(C#N)c3cc(-c4ccccc4)on3)cc2)OC1(C)C (centres unmarked) [Compound 2]", "10-20%"],
  ["N#CC(Nc1ccc([B-](F)(F)F)cc1)c1ccco1 (centres unmarked) [Compound 5]", "0-5%"],
  ["Cc1cc(C(C#N)Nc2ccc(B3OC(C)(C)C(C)(C)O3)cc2)no1 (centres unmarked) [Compound 3]", "0-5%"],
  ["CC1(C)OB(c2ccc(NC(C#N)c3cc(-c4ccc(F)cc4)on3)cc2)OC1(C)C (centres unmarked) [Compound 1]", "≧5%"]
]}

FYI, the data here is from patent US9469659B2.
